- assay.system: MMP-12 (macrophage metalloelastase) (Homo sapiens)
- Sequence (P39900 106-263 limits assumed): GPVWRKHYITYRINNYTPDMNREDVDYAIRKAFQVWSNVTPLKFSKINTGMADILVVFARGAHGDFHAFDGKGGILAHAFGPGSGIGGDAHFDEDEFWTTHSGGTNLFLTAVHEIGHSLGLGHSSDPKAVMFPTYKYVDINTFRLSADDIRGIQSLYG
Known pKi of a selection of compounds
Keep it numeric: pKi is minus log10 of the concentration in mol/L.

>  <compound>
CNC(=O)C(Cc1ccccc1)N1CCC(c2ccccc2)CC(NC(=O)C(S)CCCCN2C(=O)c3ccccc3C2=O)C1=O (centres unmarked) [Compound III-1]

>  <pKi>
7.28

$$$$

The reported pKi of the compound CNC(=O)C(Cc1ccccc1)N1CCC(c2ccccc2)CC(NC(=O)C(S)CCCCN2C(=O)c3ccccc3C2=O)C1=O (centres unmarked) [Compound II-1] was 7.74
